- method description: Minimal motor impairment
- Assay type: in vivo, rats
- run conditions: male, Sprague-Dawley, rat, in vivo, ip
reported metric: TD50 at 0.5 h (mg/kg)
// note: answer is a bare numeric in mg/kg

// C[C@H](C(=O)NCc1ccccc1)N1C(=O)CCC1=O [(R)-AS-1] : TD50 at 0.5 h value = 254

====

- method description: Minimal motor impairment
- Format: in vivo, rats
- run conditions: female, Sprague-Dawley, rat, in vivo, ip
reported metric: TD50 at […]

Please fill in: TD50 at […] reported for C[C@H](C(=O)NCc1ccccc1)N1C(=O)CCC1=O [(R)-AS-1] = > 500 mg/kg
